Readings of melting point for the listed compounds

- Compound: "CCC(=O)Nc1cc(-c2sc(C(C)=O)nc2-c2cccc(C)c2)ccn1"
  melting point: "121 to 123 °C"
- Compound: "NCC(=O)NCc1cc(=O)c(O)co1"
  melting point: "216 to 218 °C"
- Compound: "O=C(c1cccc(OCc2ccccc2)c1)C(CCc1nnn[nH]1)c1ccccc1 (stereo unspecified)"
  melting point: "136 to 138 °C"
- Compound: "c1ccc(-c2nnc3c4c(c(OCc5ccccn5)nn23)CCCC4)cc1"
  melting point: "194 °C"
- Compound: "Clc1ccc(-c2cc(C3CC3)n3nccc3n2)cc1"
  melting point: "137 to 138 °C"
- Compound: "CCCCCCCCCC1OC1CO (stereo unspecified)"
  melting point: "55 to 56 °C"

###

Each entry below lists one item and its recorded melting point value.

- Molecule: "CCCOc1ccc2[nH]c(C(=O)O)cc2c1"
  melting point: "155 °C"
- Molecule: "O=C(O)c1c(F)cc(F)c(F)c1C(=O)O"
  melting point: "153 to 155 °C"
- Molecule: "COC(=O)C1=C(C)NC(C)=C(C(=O)OCC2CCC(=O)O2)C1c1ccccc1[N+](=O)[O-] (stereo unspecified)"
  melting point: "132 to 134 °C"
- Molecule: "Brc1ccc(Br)c2nsnc12"
  melting point: "181 to 183 °C"
- Molecule: "COC(=O)C(O)CCNc1ncc(N)cc1N (stereo unspecified)"
  melting point: "229 to 230 °C"
- Molecule: "CC(C)(Oc1ccc(OCc2nc(-c3ccc(C(C)(C)C)cc3)no2)cc1)C(=O)O"
  melting point: "138 to 140 °C"
- Molecule: "CCCCCC(=O)NS(=O)(=O)CCc1cc(OCCCC)nn1Cc1ccc(Cl)cc1Cl"
  melting point: "90 to 92 °C"
- Molecule: "CC(C)(C)c1cc(C(=O)Nc2cccc(C(=O)O)c2)cc(C(C)(C)C)c1O"
  melting point: "279 to 280 °C"
- Molecule: "Cc1cc(OCc2ccccc2)c(C)c([N+](=O)[O-])c1"
  melting point: "66 to 68 °C"
- Molecule: "CCCCCCCCCCCCc1cnn(C(C(=O)Nc2c(OC)cc(OC)cc2OC)c2ccccc2)c1 (stereo unspecified)"
  melting point: "77 to 79 °C"
- Molecule: "CCCOc1nc2sc(Cl)cc2c(=O)n1CCC"
  melting point: "62 to 65 °C"

###

Measurement label: melting point

- Compound: "CCCCCCNC(=O)OC1CCN(C(=O)Oc2ccc(Oc3ccccc3)cc2)CC1"
  Recorded value: "77 to 82 °C"
- Compound: "Clc1ncnc2[nH]nc(-c3ccccc3)c12"
  Recorded value: "> 250 °C"
- Compound: "CC(=O)OCCOCn1cc(C)c(=O)[nH]c1=O"
  Recorded value: "105 to 107 °C"
- Compound: "CC1(CC(=O)O)CCCCC1=O (stereo unspecified)"
  Recorded value: "87 to 90 °C"
- Compound: "Cn1cc(C(=O)Nc2nc(-c3ccco3)c(C(=O)c3ccccc3)s2)ccc1=O"
  Recorded value: "220 to 225 °C"
- Compound: "COC(=O)c1c(Cl)cc(Cl)cc1NC(=O)CSc1ccc(NCc2ccc(Cl)cc2)cc1"
  Recorded value: "96 to 98 °C"
